Examples of binders with documented MCr binding affinity relative to αMSH follow.
Target: T1, MC3r (human recombinant, CHO cells) (human, UniProt P41968 1-323)
T1 construct: whole, on cells
T1 sequence (P41968 whole entry): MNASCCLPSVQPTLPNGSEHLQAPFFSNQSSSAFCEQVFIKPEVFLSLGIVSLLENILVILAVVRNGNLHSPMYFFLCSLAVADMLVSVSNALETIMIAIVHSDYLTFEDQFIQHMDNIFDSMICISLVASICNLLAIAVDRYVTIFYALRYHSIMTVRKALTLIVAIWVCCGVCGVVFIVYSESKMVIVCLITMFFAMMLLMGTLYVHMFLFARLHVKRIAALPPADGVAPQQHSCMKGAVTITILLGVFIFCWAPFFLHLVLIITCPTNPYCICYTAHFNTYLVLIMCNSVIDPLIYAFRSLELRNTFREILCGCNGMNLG
Assay: radioligand binding, CHO cells expressing human MC3r; affinity as a multiple of αMSH's
# value in fold; strip the unit string

Example entries and their recorded answers appear below.
1. KYVXGHFRWDRFG (alpha-amino group of Lys1 acetylated; Ac-Lys-Lys attached to the epsilon-amino group of Lys1; Nle at position 4 (written X); D-Phe at position 7; D-Trp at position 9; C-terminal amide, BAP-modified γ-MSH analogue; X = norleucine) [Analogue 8 (Example 3): Ac-(Ac-Lys-Lys)Lys-Tyr-Val-Nle-Gly-His-DPhe-Arg-DTrp-Asp-Arg-Phe-Gly-NH2] ... 37
2. KYVXGHFRWDRFG (alpha-amino group of Lys1 acetylated; Ac-Lys-Lys attached to the epsilon-amino group of Lys1; Nle at position 4 (written X); D-Trp at position 9; C-terminal amide, BAP-modified γ-MSH analogue; X = norleucine) [Analogue 5 (Example 3): Ac-(Ac-Lys-Lys)Lys-Tyr-Val-Nle-Gly-His-Phe-Arg-DTrp-Asp-Arg-Phe-Gly-NH2] ... 38
3. KYVXGHFRWDRFG (alpha-amino group of Lys1 acetylated; Ac-Lys-Lys attached to the epsilon-amino group of Lys1; Nle at position 4 (written X); C-terminal amide, BAP-modified γ-MSH analogue; X = norleucine) [Analogue 6 (Example 3): Ac-(Ac-Lys-Lys)Lys-Tyr-Val-Nle-Gly-His-Phe-Arg-Trp-Asp-Arg-Phe-Gly-NH2] ... 4.6

stdin: Look up and state reported MCr binding affinity relative to αMSH for KYVXGHFRWDRFG (alpha-amino group of Lys1 acetylated; Ac-Lys-Lys attached to the epsilon-amino group of Lys1; Nle at position 4 (written X); D-Phe at position 7; C-terminal amide, BAP-modified γ-MSH analogue; X = norleucine) [Analogue 7 (Example 3): Ac-(Ac-Lys-Lys)Lys-Tyr-Val-Nle-Gly-His-DPhe-Arg-Trp-Asp-Arg-Phe-Gly-NH2]
stdout: 46

Data provenance is patent US9950027.
